Tested on: MDA-MB-435 melanoma
Experiment: NCI-60 one-dose screen, 48 h (100 = growth as untreated, 0 = no growth, -100 = all killed)
Conditions: 10 µM
Compounds without any hit were thinned out: in the full panel of roughly 83,000, 20% have a hit.
quantity name: growth (%)

>  <compound>
C[n+]1c(/C=C/c2c[nH]c3ccccc23)ccc2ccccc21

>  <test system>
MDA-MB-435 melanoma

>  <obs value>
60.3

$$$$
>  <compound>
CC(=O)c1c(O)cc2c3c1OC(C)(C)C1CCC(C)(CC31)O2 (stereo unspecified)

>  <test system>
MDA-MB-435 melanoma

>  <obs value>
104

$$$$
>  <compound>
Cc1ccc(-n2c(-c3cc4c([nH]c5ccccc54)c(-c4cccc(O)c4)n3)n[nH]c2=S)cc1

>  <test system>
MDA-MB-435 melanoma

>  <obs value>
1.24

$$$$
>  <compound>
C[N+]1(CC2CO2)CCCCCC1 (stereo unspecified)

>  <test system>
MDA-MB-435 melanoma

>  <obs value>
102

$$$$
>  <compound>
Nc1cc2c(cc1Cl)-c1ccc(Cl)cc1C2=O

>  <test system>
MDA-MB-435 melanoma

>  <obs value>
103

$$$$
>  <compound>
COc1ccc(OC)c([N+](=O)[O-])c1C=O

>  <test system>
MDA-MB-435 melanoma

>  <obs value>
101

$$$$
>  <compound>
N#CCC1CCCC1

>  <test system>
MDA-MB-435 melanoma

>  <obs value>
91.2

$$$$
>  <compound>
CCCOCC(O)CNCCN (stereo unspecified)

>  <test system>
MDA-MB-435 melanoma

>  <obs value>
98.5

$$$$
>  <compound>
Cc1nc2ccc(-n3c(-c4ccc(Cl)cc4)nc4ccccc4c3=O)cc2n1Cc1ccccc1

>  <test system>
MDA-MB-435 melanoma

>  <obs value>
97.2

$$$$
>  <compound>
FC(F)(F)c1ccc(-c2nc(-c3nc4cc(Cl)c(Cl)cc4[nH]3)c3ccccn23)cc1

>  <test system>
MDA-MB-435 melanoma

>  <obs value>
73.4

$$$$
>  <compound>
C=CCn1c(C)nc2cc(Nc3nc(Nc4ccc5nc(C)n(CC=C)c5c4)c4ccccc4n3)ccc21

>  <test system>
MDA-MB-435 melanoma

>  <obs value>
-76

$$$$
